Molecular target: Tyrosine-protein kinase Lyn (Homo sapiens) (UniProt P07948)
Sequence (P07948 2-512 limits assumed): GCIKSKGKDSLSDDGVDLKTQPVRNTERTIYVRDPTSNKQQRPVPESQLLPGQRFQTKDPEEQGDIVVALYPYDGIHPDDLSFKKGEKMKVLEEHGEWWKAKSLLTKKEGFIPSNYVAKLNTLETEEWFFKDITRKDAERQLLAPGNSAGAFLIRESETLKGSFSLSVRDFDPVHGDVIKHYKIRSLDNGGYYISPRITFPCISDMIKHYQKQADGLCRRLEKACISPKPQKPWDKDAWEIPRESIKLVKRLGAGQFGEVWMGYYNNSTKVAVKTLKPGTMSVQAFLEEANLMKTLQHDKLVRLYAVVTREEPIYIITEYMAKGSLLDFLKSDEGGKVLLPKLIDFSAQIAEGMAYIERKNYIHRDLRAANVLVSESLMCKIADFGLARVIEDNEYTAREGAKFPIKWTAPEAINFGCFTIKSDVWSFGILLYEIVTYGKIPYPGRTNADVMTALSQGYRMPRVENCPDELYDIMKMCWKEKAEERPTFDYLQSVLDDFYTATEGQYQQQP
Conditions: at 10 µM
parameter: residual activity (%)
Numbers only here, please. The scale is %.

Incoming: Quick one: residual activity for `O=C1NC(=O)c2cc(Nc3ccc(F)cc3)c(Nc3ccc(F)cc3)cc21` ?
Outgoing: 7

Incoming: # get_value(readout='residual activity', item= `Oc1ccc(Nc2nc(-c3ccc(Cl)cc3)cs2)cc1` )
Outgoing: 56

Incoming: Form field: reported residual activity of O=C1Nc2ccccc2/C1=C1/Nc2ccccc2/C1=N\OCCC(O)CO (stereo not drawn)
Outgoing: -1

###

Target: Serine/threonine-protein kinase Sgk2 (Homo sapiens) (UniProt Q9HBY8)
Sequence (whole entry): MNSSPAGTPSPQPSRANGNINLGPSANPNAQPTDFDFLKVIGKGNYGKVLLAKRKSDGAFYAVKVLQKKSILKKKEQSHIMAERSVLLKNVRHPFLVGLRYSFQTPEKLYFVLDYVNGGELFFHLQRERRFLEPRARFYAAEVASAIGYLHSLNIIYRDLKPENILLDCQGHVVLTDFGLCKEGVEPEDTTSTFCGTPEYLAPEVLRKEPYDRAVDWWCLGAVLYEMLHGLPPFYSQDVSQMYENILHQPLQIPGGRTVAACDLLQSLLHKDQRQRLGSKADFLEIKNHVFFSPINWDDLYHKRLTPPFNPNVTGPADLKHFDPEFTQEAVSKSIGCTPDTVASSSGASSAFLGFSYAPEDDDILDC
Conditions: at 1 µM
parameter: residual activity

Incoming: Data request, read-out residual activity, for `O=C1c2ccccc2-[n+]2ccc3c([nH]c4ccccc43)c21`
Outgoing: 73%

Incoming: Please report the recorded residual activity for `Oc1ccc(-c2nc(-c3ccc(F)cc3)c(-c3ccncc3)[nH]2)cc1` .
Outgoing: 99%

Incoming: Any idea what its residual activity is? The compound is `Oc1n[nH]c2nnc(-c3c(-c4ccccc4)nn4ccccc34)cc12`
Outgoing: 96%

Incoming: So what's the measured residual activity for this one? `NC(=O)c1ccc2[nH]c(-c3ccc(Oc4ccc(Cl)cc4)cc3)nc2c1`
Outgoing: 112%

Incoming: // lookup residual activity for `O=C1Nc2cc(Br)ccc2/C1=C1/Nc2ccccc2/C1=N\O`
Outgoing: 47%

Incoming: Fill in: residual activity of `Cc1nc2cc3nc(-c4cccs4)cnc3cc2n1C` is ___
Outgoing: 104%
